Assay: Particle characteristics of LNPs containing luciferase mRNA and novel ionizable lipids
Assay type: physicochemical
Conditions: Table 2; luciferase mRNA LNP 1.6:54.6:32.8:10.9
outcome.measure: Final Product % EE (%)

{"columns": ["compound", "experimental.result"],
 "data": [
  ["CCCCCCCCCCC(CCCC(=O)OCC(CCCCCC)CCCCCCCC)N(CCCN(C)C)C(=O)CCCCCCC(=O)OCC(CCCC)CCCCCC (stereo not drawn)", 99],
  ["CCCCC/C=C\\CCCC(CCC/C=C\\CCCCC)C(CCC/C=C\\CCCCC)OC(=O)CCCCN(C)C (stereo not drawn) [Compound 13-B43, reference compound]", 99],
  ["CCCCCCCCCC(CC(=O)OCC(CCCCCC)CCCCCCCC)N(CCCN(C)C)C(=O)CCCCCCC(=O)OCC(CCCC)CCCCCC (stereo not drawn)", 98],
  ["CCCCCCCCCC(=O)N(CCCN(C)C)C(CCCCCCCCC)CC(=O)NN(CCCCCCCC)CCCCCCCC (stereo not drawn)", 97],
  ["CCCCC/C=C\\CCCC(CCC/C=C\\CCCCC)=NNC(=O)CC(CCCCCCCCC)N(CCCN(C)C)C(=O)CCCCCCCCC (stereo not drawn)", 96],
  ["CCCCCCCCCC(=O)N(CCCN(C)C)C(CCCCCCCCC)CCOC(=O)C(F)(CCCCCC)CCCCCCCC (stereo not drawn)", 98],
  ["CCCCCCCCCC(CC(=O)OCC(CCCCCC)CCCCCCCC)N(CCCN(C)C)C(=O)CCCCC(=O)OCC(CCCC)CCCCCC (stereo not drawn)", 98],
  ["CCCCCCCCCC(=O)N(CCCN(C)C)C(CCCCCCCCC)CC(=O)NN=C(CCCCCCCC)CCCCCCCC (stereo not drawn)", 98],
  ["CCCCCCCCCC(=O)N(CCCN(C)C)C(CCCCCCCCC)CC(=O)NNC(CCCCCCCC)CCCCCCCC (stereo not drawn)", 99]
]}

---

Experiment: Particle characteristics of LNPs containing EGFP mRNA and novel ionizable lipids
Assay type: physicochemical
Conditions: Table 21; EGFP mRNA LNP 1.6:54.6:32.8:10.9
Items are presented alongside their recorded Final Product PDI.
Please respond with just the number, no unit label.

The examples below pair each entry with its known result.
{"columns": ["molecule", "Final Product PDI"],
 "data": [
  ["CCCCCCCCCCN(C(=O)CCCN(C)C)C(CCCCCCCCC)CCCCC(F)(F)C(=O)OCCC(CCCCCC)CCCCCC (stereo not shown) [Compound 103]", 0.09],
  ["CCCCCCCCCCON(C(=O)CCCCN(C)C)C(CCCCCCCCCC)CCCCCCC(=O)OCCC(CCCCC)CCCCC (stereo not shown) [Compound 95]", 0.08],
  ["CCCCCC/C=C\\CCON(C(=O)CCCN(C)C)C(CCCCCCCCCC)CCCCCCC(=O)OCCC(CCCCC)CCCCC (stereo not shown) [Compound 100]", 0.08]
]}

Please turn your attention to the following entry.
**Q:** // Final Product PDI lookup, key: CCCCCCCCCCN(C(=O)CCCN(C)C)C(CCCCCCCCC)CCCCCCC(F)(F)C(=O)OC(CCCCCCC)CCCCCCC (stereo not shown) [Compound 93]
**A:** 0.02

---

Items are presented alongside their recorded Final Product % EE.
Assay: Particle characteristics of LNPs containing EGFP mRNA and novel ionizable lipids
Assay type: physicochemical
Settings: Table 23; EGFP mRNA LNP 1.6:54.6:32.8:10.9
Record the value in %, omitting the unit from your answer.

The examples below pair each entry with its known result.
{"columns": ["molecule", "Final Product % EE / %"],
 "data": [
  ["CCCCCCCCCCN(C(=O)CCCN(C)C)C(CCCCCCCCC)CCCCC(F)C(=O)OCC(CCCCCC)CCCCCCCC (centres unmarked)", 99],
  ["CCCCCCCCCCN(C(=O)CCCN(C)C)C(CCCCCCCCC)CCCCC(F)C(=O)OC(CCCCCC)CCCCCC (centres unmarked)", 99],
  ["CCCCC/C=C\\CCCC(CCC/C=C\\CCCCC)C(CCC/C=C\\CCCCC)OC(=O)CCCCN(C)C (centres unmarked) [Compound 13-B43, reference compound]", 98],
  ["CCCCCCCCCCN(C(=O)CCCN(C)C)C(CCCCCCCCC)CCCCC(F)C(=O)OC(CCCCCCCC)CCCCCCCC (centres unmarked)", 99]
]}

Please turn your attention to the following entry.
**Q:** // Final Product % EE lookup, key: CCCCCCCCCCN(C(=O)CCCN(C)C)C(CCCCCCCCC)CCCCC(F)C(=O)OC(CCCCCCC)CCCCCCC (centres unmarked)
**A:** 100

---

Experiment: Particle characteristics of LNPs containing EGFP mRNA and novel ionizable lipids
Format: physicochemical
Settings: Table 20; EGFP mRNA LNP 1.6:54.6:32.8:10.9
Method: The lipid solution contains 4 components: a PEG-conjugated lipid, an ionizable lipid, cholesterol, and a phospholipid (e.g., DSPC). Lipid stocks were prepared using the lipid identities and molar ratios as described, to achieve a total concentration of ˜7 mg/mL in 100% ethanol. […] Nucleic acid concentration was determined by the RiboGreen assay. Particle size and polydispersity were determined using a Malvern Nano Series Zetasizer. […]
Items are presented alongside their recorded Final Product PDI.
Please respond with just the number, no unit label.

The examples below pair each entry with its known result.
{"columns": ["compound", "experimental.result"],
 "data": [
  ["CCCCC/C=C\\CCCC(CCC/C=C\\CCCCC)C(CCC/C=C\\CCCCC)OC(=O)CCCCN(C)C (stereo not shown) [Compound 13-B43, reference compound]", 0.07],
  ["CCCCCCCCCCC(CCCCCCC(=O)OCCC(CCCCC)CCCCC)N(CCCCCCCCCC)C(=O)CCCCN1CCCC1 (stereo not shown)", 0.03],
  ["CCCCCCCCCCC(CCCCCCC(=O)OCCC(CCCCCC)CCCCCC)N(CCCCCCCCCC)C(=O)CCCCN1CCCC1 (stereo not shown)", 0.07]
]}

Please turn your attention to the following entry.
**Q:** // Final Product PDI lookup, key: CCCCCCCCCCC(CCCCCCC(=O)OCCC(CCCCCCC)CCCCCCC)N(CCCCCCCCCC)C(=O)CCCCN1CCCC1 (stereo not shown)
**A:** 0.03

---

Assay: Particle characteristics of LNPs containing EGFP mRNA and novel ionizable lipids
Type: physicochemical
Details: Table 22; EGFP mRNA LNP 1.6:54.6:32.8:10.9
outcome.measure: Final Product % EE (%)
Record the value in %, omitting the unit from your answer.

The examples below pair each entry with its known result.
{"columns": ["molecule", "outcome.measure", "experimental.result"],
 "data": [
  ["CCCCCCCCCCN(C(=O)CCCN(C)C)C(CCCCCCCCC)CCCCC(F)(F)C(=O)OC(CCCCC)CCCCC (stereo not shown) [Compound 108]", "Final Product % EE", 95],
  ["CCCCCCCCCCON(C(=O)CCCN(C)C)C(CCCCCCCCCC)CCCCCCC(F)(F)C(=O)OC(CCCCCCC)CCCCCCC (stereo not shown) [Compound 106]", "Final Product % EE", 95],
  ["CCCCCCCCCCN(C(=O)CCCN(C)C)C(CCCCCCCCC)CCCCCCC(F)C(=O)OC(CCCCC)CCCCC (stereo not shown) [Compound 112]", "Final Product % EE", 95]
]}

Please turn your attention to the following entry.
**Q:** // Final Product % EE lookup, key: CCCCCCCCCCN(C(=O)CCCN(C)C)C(CCCCCCCCC)CCCCC(F)(F)C(=O)OC(CCCCCCCC)CCCCCCCC (stereo not shown) [Compound 110]
**A:** 98

---

Experiment: Particle characteristics of LNPs containing luciferase mRNA and novel ionizable lipids
Type: physicochemical
Conditions: Table 1; luciferase mRNA LNP 1.6:54.6:32.8:10.9
outcome.measure: Final Product PDI

The examples below pair each entry with its known result.
{"columns": ["molecule", "Final Product PDI"],
 "data": [
  ["CCCCCCCCCCOC(=O)CC(CCCCCCCCC)N(CCCN(C)C)S(=O)(=O)CC(CCCCCC)CCCCCCCC (stereo not drawn)", 0.07],
  ["CCCCCCCCCC(CC(=O)OCC(CCCCCC)CCCCCCCC)N(CCCN(C)C)S(=O)(=O)CCCCCCCC (stereo not drawn)", 0.04],
  ["CCCCCCCCCC(CC(=O)OCC(CCCCCC)CCCCCCCC)N(CCCN(C)C)S(=O)(=O)CCCC (stereo not drawn)", 0.08],
  ["CCCCC/C=C\\CCCC(CCC/C=C\\CCCCC)C(CCC/C=C\\CCCCC)OC(=O)CCCCN(C)C (stereo not drawn) [Compound 13-B43, reference compound]", 0.13]
]}

I. CCCCCCCCCCCS(=O)(=O)N(CCCN(C)C)C(CCCCCCCCC)CC(=O)OCC(CCCCCC)CCCCCCCC (stereo not drawn)
II. CCCCC/C=C\CCCOC(=O)CC(CCCCCCCCC)N(CCCN(C)C)S(=O)(=O)CCCCCCCCCCC (stereo not drawn)
**Q:** Returns: the label, I or II , whose recorded Final Product PDI is the lower number. // respond with label for picked entry
**A:** II
(II: 0.05, I: 0.09)
